Biological target: Flavin-dependent thymidylate synthase (Mycobacterium tuberculosis)
Sequence (whole entry): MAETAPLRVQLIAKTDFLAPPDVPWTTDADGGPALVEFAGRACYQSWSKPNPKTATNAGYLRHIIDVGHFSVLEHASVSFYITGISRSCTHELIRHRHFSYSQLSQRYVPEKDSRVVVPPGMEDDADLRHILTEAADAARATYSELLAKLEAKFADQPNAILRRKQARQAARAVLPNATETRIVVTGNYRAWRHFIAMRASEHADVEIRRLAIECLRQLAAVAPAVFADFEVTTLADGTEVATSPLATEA
Assay: Inhibition of Mycobacterium tuberculosis H37Rv ThyX expressed in Escherichia coli BL21(DE3) using 100 uM dUMP as substrate in absence of FAD cofactor at 200 uM incubated for 10 mins prior to the injection of NADPH and measured upto 20 mins by NADPH oxidase based spectrophotometric analysis
Conditions: time 30.0 min
Calls of active or inactive are those of the source. No cut-off for these calls is given here.
Recorded Metric: inhibition

# Item Smiles, Recorded Metric, Result
data = [
    ("COc1ccc2c(=O)[nH]c(=O)n(CC=CCP(=O)(O)O)c2c1", "inhibition", "inactive"),
    ("O=c1[nH]c(=O)n(CC=CCP(=O)(O)O)c2ccccc12", "inhibition", "inactive"),
    ("O=C(Cc1ccccc1)NCC#Cc1ccc2c(=O)[nH]c(=O)n(CC=CCP(=O)(O)O)c2c1", "inhibition", "inactive"),
]

* * *

Parameter inhibition: see the listing below.
Molecular target: Flavin-dependent thymidylate synthase (Mycobacterium tuberculosis)
Sequence (whole entry): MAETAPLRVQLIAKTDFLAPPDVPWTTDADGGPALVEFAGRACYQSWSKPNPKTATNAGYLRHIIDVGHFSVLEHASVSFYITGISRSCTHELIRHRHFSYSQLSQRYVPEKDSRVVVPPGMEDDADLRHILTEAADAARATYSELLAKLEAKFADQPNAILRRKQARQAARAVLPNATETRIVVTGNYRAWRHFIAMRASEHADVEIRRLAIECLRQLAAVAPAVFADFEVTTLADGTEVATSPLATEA
Assay: Inhibition of Mycobacterium tuberculosis H37Rv ThyX expressed in Escherichia coli BL21(DE3) using 100 uM dUMP as substrate in presence of FAD cofactor at 200 uM incubated for 10 mins prior to the injection of NADPH and measured upto 20 mins by NADPH oxidase based spectrophotometric analysis relative to control
Conditions: time 30.0 min
Recorded Metric: inhibition

# Item Smiles, Recorded Metric, Result
measured = [
    ("O=C(Cc1ccccc1)NCC#Cc1ccc2c(c1)c(=O)[nH]c(=O)n2CC=CCP(=O)(O)O", "inhibition", "0%"),
    ("CCCCCCCC(=O)NCC#Cc1ccc2c(c1)c(=O)[nH]c(=O)n2CC=CCP(=O)(O)O", "inhibition", "0%"),
    ("CCCCCCCC(=O)NCC#Cc1cn(CC=CCP(=O)(O)O)c(=O)[nH]c1=O", "inhibition", "0%"),
    ("CCCCCCNC(=O)NCC#Cc1ccc2c(=O)[nH]c(=O)n(CC=CCP(=O)(O)O)c2c1", "inhibition", "31.8%"),
    ("CCCCCCNC(=O)NCC#Cc1cn(CC=CCP(=O)(O)O)c(=O)[nH]c1=O", "inhibition", "0%"),
    ("O=C(Cc1ccccc1)NCC#Cc1ccc2c(=O)[nH]c(=O)n(CC=CCP(=O)(O)O)c2c1", "inhibition", "14.7%"),
    ("Cc1ccc2c(c1)c(=O)[nH]c(=O)n2CC=CCP(=O)(O)O", "inhibition", "26.2%"),
    ("CCCCCCNC(=O)NCC#Cc1ccc2c(c1)c(=O)[nH]c(=O)n2CC=CCP(=O)(O)O", "inhibition", "14.9%"),
    ("O=c1[nH]c(=O)n(CC=CCP(=O)(O)O)cc1Cc1ccccc1", "inhibition", "23.7%"),
    ("COc1ccc2c(=O)[nH]c(=O)n(CC=CCP(=O)(O)O)c2c1", "inhibition", "26.4%"),
    ("CCCCCCCC(=O)NCC#Cc1ccc2c(=O)[nH]c(=O)n(CC=CCP(=O)(O)O)c2c1", "inhibition", "14.9%"),
    ("O=c1[nH]c(=O)n(CC=CCP(=O)(O)O)c2ccccc12", "inhibition", "15.8%"),
]
